Assignment: determine reported selectivity ratio for the given compounds.
Experiment: in vitro
Settings: human, MT4 cells
Description: Selectivity index, ratio of CC50 for human MT4 cells to EC50 for HIV1 NL4-3 infected in human MT4 cells
When you answer, write just the number.

Data point: Cc1cc(C)cc(S(=O)(=O)c2c(C(=O)NC(C)c3cccnc3)[nH]c3ccc(Cl)cc23)c1 (racemic) ; selectivity ratio = 91000

Consider Cc1cc(C)cc(S(=O)(=O)c2c(C(=O)Nc3ccncc3)[nH]c3ccc(Cl)cc23)c1 . Its measured selectivity ratio is 89600

Lab book: selectivity ratio of Cc1cc(C)cc(S(=O)(=O)c2c(C(=O)NCCn3c([N+](=O)[O-])cnc3C)[nH]c3ccc(Cl)cc23)c1 noted as 40900

Input Cc1cc(C)cc(S(=O)(=O)c2c(C(=O)NNc3ccncc3)[nH]c3ccc(Cl)cc23)c1 . Output selectivity ratio: 727

Recorded selectivity ratio (compound Cc1cc(C)cc(S(=O)(=O)c2c(C(=O)Nc3cccc(N)c3)[nH]c3ccc(Cl)cc23)c1 ): 108000
